Target: 5-HT1A receptor (Homo sapiens)
Construct: host or cells: CHO cells
Sequence (P08908 whole entry): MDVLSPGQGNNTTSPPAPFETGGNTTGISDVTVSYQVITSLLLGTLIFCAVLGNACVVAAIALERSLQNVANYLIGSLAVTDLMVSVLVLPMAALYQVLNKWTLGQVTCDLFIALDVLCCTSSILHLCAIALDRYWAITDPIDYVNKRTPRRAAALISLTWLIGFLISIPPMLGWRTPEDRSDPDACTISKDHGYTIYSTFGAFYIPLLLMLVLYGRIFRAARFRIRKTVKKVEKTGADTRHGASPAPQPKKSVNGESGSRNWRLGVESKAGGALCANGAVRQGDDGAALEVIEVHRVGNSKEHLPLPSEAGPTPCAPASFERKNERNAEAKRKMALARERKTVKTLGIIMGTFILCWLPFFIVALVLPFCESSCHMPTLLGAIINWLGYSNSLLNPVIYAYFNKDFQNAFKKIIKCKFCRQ
Experiment: cell-based
Settings: Ca^2+ flux, agonist; read-out: 5-HT1A EC50
Experimental: Functional Assays at 5-HT2A, 5-HT2B, and 5-HT1A. Agonist activity at 5-HT2A, 5-HT2B, and 5-HT1A receptors was determined using a FLIPR Ca^2+ flux assay at WuXi AppTec (Hong Kong) Limited according to their standard protocols. […] 10 μL of references and compounds were then transferred from the compound plate into the cell plate and the fluorescent signal was read.
assay metric: EC50

- cpd smiles: "CC[C@@H](C)NC(=O)[C@@H]1C=C2c3cccc4[nH]c(Br)c(c34)C[C@H]2N(C)C1"
  measurement: "> 10 µM"
- cpd smiles: "CCC[C@@H](C)NC(=O)[C@@H]1C=C2c3cccc4[nH]c(Br)c(c34)C[C@H]2N(C)C1"
  measurement: "> 10 µM"

Please examine the following record next.
Assay 5-HT1A receptor (Homo sapiens), sample CCC(CC)NC(=O)[C@@H]1C=C2c3cccc4[nH]c(Br)c(c34)C[C@H]2N(C)C1 , EC50 read: > 10 µM

###

test: Metabolic stability in human liver microsomes (HLM); assay type: in vitro ADME; conditions: 1 μM, 0.50 mg protein per mL
assay metric: t1/2 (min)
Numbers only; they are read as min.

In the examples that follow, each entry is paired with its recorded t1/2.
- molecule: "CCN(CC)C(=O)[C@@H]1C=C2c3cccc4[nH]cc(c34)C[C@H]2N(Cc2ccc(OC)cc2)C1 [Compound 19]"
  assay metric: "t1/2"
  measurement: 16.8
- molecule: "CCN(CC)C(=O)[C@@H]1C=C2c3cccc4[nH]cc(c34)C[C@H]2N(CCc2cccc(OC)c2)C1 [Compound 20]"
  assay metric: "t1/2"
  measurement: 2.1

According to the records, this molecule CCN(CC)C(=O)[C@H]1C=C2c3cccc4[nH]cc(c34)C[C@H]2N(CCCF)C1 [Compound 2a] displays t1/2 of 17.018

###

target: 5-HT2A receptor (Homo sapiens, UniProt P28223); construct: host or cells: HEK293; test: cell-based; type: cell-based; conditions: Ca^2+ flux, agonist; read-out: 5-HT2A EC50
Sequence (P28223 whole entry): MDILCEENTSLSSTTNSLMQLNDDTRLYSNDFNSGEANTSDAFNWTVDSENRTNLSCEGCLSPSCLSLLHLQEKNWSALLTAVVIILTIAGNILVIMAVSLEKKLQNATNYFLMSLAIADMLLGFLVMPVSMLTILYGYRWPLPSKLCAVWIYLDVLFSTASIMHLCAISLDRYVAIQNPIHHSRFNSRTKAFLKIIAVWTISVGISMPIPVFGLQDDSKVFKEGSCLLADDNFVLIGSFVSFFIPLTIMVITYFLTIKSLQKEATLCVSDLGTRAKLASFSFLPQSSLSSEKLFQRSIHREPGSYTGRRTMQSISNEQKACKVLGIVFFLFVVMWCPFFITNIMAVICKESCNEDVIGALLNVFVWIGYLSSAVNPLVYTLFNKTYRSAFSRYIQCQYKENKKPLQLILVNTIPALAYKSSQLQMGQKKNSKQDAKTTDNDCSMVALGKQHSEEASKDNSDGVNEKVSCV
Measured log10 of EC50 by item
All values: base-10 log of EC50 in nM.

In the examples that follow, each entry is paired with its recorded log10 of EC50.
- cpd smiles: "CCN(CC)C(=O)[C@@H]1C=C2c3cccc4[nH]cc(c34)C[C@H]2N(CCF)C1"
  target system: "5-HT2A receptor (Homo sapiens, UniProt P28223)"
  assay metric: "log10 of EC50"
  measurement: 1.21
- cpd smiles: "CC[C@@H](C)NC(=O)[C@H]1C=C2c3cccc4[nH]cc(c34)C[C@H]2N(CC)C1"
  target system: "5-HT2A receptor (Homo sapiens, UniProt P28223)"
  assay metric: "log10 of EC50"
  measurement: 2.07
- cpd smiles: "CCN(CC)C(=O)[C@@H]1C=C2c3cccc4[nH]c(Br)c(c34)C[C@H]2N(CCCF)C1"
  target system: "5-HT2A receptor (Homo sapiens, UniProt P28223)"
  assay metric: "log10 of EC50"
  measurement: 2.06

Assay 5-HT2A receptor (Homo sapiens, UniProt P28223), sample CCN(CC)C(=O)[C@@H]1C=C2c3cccc4[nH]cc(c34)C[C@H]2N(CCCF)C1 , log10 of EC50 read: 1.05

Assay 5-HT2A receptor (Homo sapiens, UniProt P28223), sample CC[C@@H](C)NC(=O)[C@H]1C=C2c3cccc4[nH]cc(c34)C[C@H]2N(C)C1 , log10 of EC50 read: 2.25

Assay 5-HT2A receptor (Homo sapiens, UniProt P28223), sample CCC[C@@H](C)NC(=O)[C@@H]1C=C2c3cccc4[nH]c(Br)c(c34)C[C@H]2N(C)C1 , log10 of EC50 read: 2.12

Assay 5-HT2A receptor (Homo sapiens, UniProt P28223), sample CCN(CC)C(=O)[C@@H]1C=C2c3cccc4[nH]cc(c34)C[C@H]2N(CCc2ccccc2OC)C1 , log10 of EC50 read: 2.33

###

molecular target: 5-HT2A receptor (Homo sapiens, UniProt P28223); construct: host or cells: HEK293; test: PathHunter beta-arrestin recruitment assay at 5-HT2A; type: cell-based; conditions: 5-HT2A beta-arrestin
assay metric: agonist type in arrestin recruitment assay (in words)

In the examples that follow, each entry is paired with its recorded agonist type in arrestin recruitment assay (in words).
- cpd smiles: "C[C@H]1C[C@H](C)N1C(=O)[C@@H]1C=C2c3cccc4[nH]cc(c34)C[C@H]2N(C)C1"
  target system: "5-HT2A receptor (Homo sapiens, UniProt P28223)"
  measurement: "partial agonists"
- cpd smiles: "CCCN1C[C@H](C(=O)NC(CC)CC)C=C2c3cccc4[nH]cc(c34)C[C@H]21"
  target system: "5-HT2A receptor (Homo sapiens, UniProt P28223)"
  measurement: "full agonists"
- cpd smiles: "CCCN1C[C@H](C(=O)N2[C@@H](C)C[C@@H]2C)C=C2c3cccc4[nH]cc(c34)C[C@H]21"
  target system: "5-HT2A receptor (Homo sapiens, UniProt P28223)"
  measurement: "full agonists"
- cpd smiles: "C=CCN1C[C@H](C(=O)N[C@H](C)CC)C=C2c3cccc4[nH]cc(c34)C[C@H]21"
  target system: "5-HT2A receptor (Homo sapiens, UniProt P28223)"
  measurement: "full agonists"
- cpd smiles: "CC[C@@H](C)NC(=O)[C@@H]1C=C2c3cccc4[nH]cc(c34)C[C@H]2N(C)C1"
  target system: "5-HT2A receptor (Homo sapiens, UniProt P28223)"
  measurement: "partial agonists"
- cpd smiles: "CCC(CC)NC(=O)[C@@H]1C=C2c3cccc4[nH]cc(c34)C[C@H]2N(C)C1"
  target system: "5-HT2A receptor (Homo sapiens, UniProt P28223)"
  measurement: "partial agonists"
- cpd smiles: "CC[C@@H](C)NC(=O)[C@@H]1C=C2c3cccc4[nH]cc(c34)C[C@H]2N(CC)C1"
  target system: "5-HT2A receptor (Homo sapiens, UniProt P28223)"
  measurement: "full agonists"
- cpd smiles: "CCCN1C[C@H](C(=O)N[C@H](C)CC)C=C2c3cccc4[nH]cc(c34)C[C@H]21"
  target system: "5-HT2A receptor (Homo sapiens, UniProt P28223)"
  measurement: "full agonists"

Please examine the following record next.
According to the records, this compound CCN(CC)C(=O)[C@@H]1C=C2c3cccc4[nH]cc(c34)C[C@H]2N(CCc2ccccc2OC)C1 displays agonist type in arrestin recruitment assay (in words) of partial agonists

###

experiment: Metabolic stability in rat liver microsomes (RLM); details: RLM, 0.50 mg protein per mL
assay metric: t1/2 (min)
Numbers only; they are read as min.

In the examples that follow, each entry is paired with its recorded t1/2.
- compound: "CCN(CC)C(=O)[C@@H]1C=C2c3cccc4[nH]cc(c34)C[C@H]2N(Cc2cccc(OC)c2)C1"
  t1/2 (min): 5.3
- compound: "CCN(CC)C(=O)[C@@H]1C=C2c3cccc4[nH]cc(c34)C[C@H]2N(C)C1 [LSD, lysergic acid diethylamide, reference compound]"
  t1/2 (min): 60.2
- compound: "CCC(CC)NC(=O)[C@H]1C=C2c3cccc4[nH]cc(c34)C[C@H]2N(C)C1 [Int14a]"
  t1/2 (min): 1.8

Please examine the following record next.
According to the records, this compound CCN(CC)C(=O)[C@@H]1C=C2c3cccc4[nH]cc(c34)C[C@H]2N(Cc2ccc(OC)cc2)C1 displays t1/2 of 10.0

###

Measured t1/2 by item
experiment: Metabolic stability in human liver microsomes (HLM); assay type: in vitro ADME; settings: 1 μM, 0.50 mg protein per mL
Numbers only; they are read as min.

In the examples that follow, each entry is paired with its recorded t1/2.
- cpd smiles: "CCCN1C[C@@H](C(=O)N[C@H](C)CC)C=C2c3cccc4[nH]cc(c34)C[C@H]21"
  measurement: 2.2
- cpd smiles: "CCC[C@@H](C)NC(=O)[C@@H]1C=C2c3cccc4[nH]cc(c34)C[C@H]2N(C)C1"
  measurement: 15.865

According to the records, this compound CCC[C@@H](C)NC(=O)[C@@H]1C=C2c3cccc4[nH]cc(c34)C[C@H]2N(CCC)C1 displays t1/2 of 1.65

###

Measured microsomal CLint at 1 μM by item
test: Metabolic stability in human liver microsomes (HLM); type: in vitro ADME; conditions: both sexes, human, pooled human liver microsomes, pH 7.4, 0.50 mg protein per mL
Numbers only; they are read as µL/min/mg.

- cpd smiles: "CCN(CC)C(=O)[C@@H]1C=C2c3cccc4[nH]c(Br)c(c34)C[C@H]2N(CCCF)C1"
  microsomal CLint at 1 μM, µL/min/mg: 130

According to the records, this compound CC[C@@H](C)NC(=O)[C@@H]1C=C2c3cccc4[nH]cc(c34)C[C@H]2N(CCC(F)(F)F)C1 displays microsomal CLint at 1 μM of 435

According to the records, this compound CC[C@@H](C)NC(=O)[C@@H]1C=C2c3cccc4[nH]c(Br)c(c34)C[C@H]2N(C)C1 displays microsomal CLint at 1 μM of 56

According to the records, this compound CCCN1C[C@H](C(=O)N(CC)CC)C=C2c3cccc4[nH]cc(c34)C[C@H]21 displays microsomal CLint at 1 μM of 91.6

According to the records, this compound CCN(CC)C(=O)[C@@H]1C=C2c3cccc4[nH]cc(c34)C[C@H]2N(CCc2ccccn2)C1 displays microsomal CLint at 1 μM of 193

According to the records, this compound CCN(CC)C(=O)[C@@H]1C=C2c3cccc4[nH]cc(c34)C[C@H]2N(Cc2ccccn2)C1 displays microsomal CLint at 1 μM of 58.2

According to the records, this compound CCN(CC)C(=O)[C@@H]1C=C2c3cccc4[nH]c(Br)c(c34)C[C@H]2N(CCC(F)(F)F)C1 displays microsomal CLint at 1 μM of 125

According to the records, this compound CCCN1C[C@H](C(=O)N[C@H](C)CC)C=C2c3cccc4[nH]c(Br)c(c34)C[C@H]21 displays microsomal CLint at 1 μM of 427

Provenance of the data: patent US20230116703A1
